Assay: Lipophilicity, log P of the compound at 100 uM at pH 7.4 after 3 hrs by shake-flask method
Assay type: physicochemical
Details: buffer
Readout kind: logD at 3 h, 100 µM

Solved cases below.
CC(C)Oc1ccc(NC(=O)c2cc(N(C)Cc3ccc(F)cc3)ncn2)cc1 yielded logD at 3 h, 100 µM of 5

CN(Cc1ccc(C(F)(F)F)cc1)c1cc(C(=O)Nc2ccccc2)ncn1 yielded logD at 3 h, 100 µM of 5

CN1CCN(c2ccc(NC(=O)c3cc(N(C)Cc4ccc(C(F)(F)F)cc4)ncn3)cc2)CC1 yielded logD at 3 h, 100 µM of 5

CN(Cc1ccc(F)cc1)c1cc(C(=O)Nc2nncs2)ncn1 yielded logD at 3 h, 100 µM of 2

CN(Cc1ccc(C(F)(F)F)nc1)c1cc(C(=O)Nc2ccccc2)ncn1 yielded logD at 3 h, 100 µM of 3.7

List the reported logD at 3 h, 100 µM of each molecule below.
1. COc1ccc(NC(=O)c2cc(N(C)Cc3ccccc3)ncn2)cc1
2. CN(Cc1ccc(C(F)(F)F)nc1)c1cc(C(=O)Nc2nncs2)ncn1

1: 4.07; 2: 1.4

* * *

Exercise: state measured Tmax for each of the compounds provided.
System: Mus musculus
Assay: Tmax in C57/BL6 mouse at 20 mg/kg, po measured up to 24 hrs post dose by LC-MS/MS analysis
Type: ADME, organism-based
Conditions: in vivo
Please don't drop the unit; write it after the number.

Solved cases below.
CN(Cc1ccc(C(F)(F)F)cc1)c1cc(C(=O)Nc2ccccc2)ncn1 yielded Tmax of 1 h

CN(Cc1ccc(C(F)(F)F)nc1)c1cc(C(=O)Nc2nncs2)ncn1 yielded Tmax of 1 h

CN(Cc1ccc(F)cc1)c1cc(C(=O)Nc2nncs2)ncn1 yielded Tmax of 1 h

Switching to the query record.
CN(Cc1ccc(C(F)(F)F)nc1)c1cc(C(=O)Nc2ccccc2)ncn1 yielded Tmax of 4 h

* * *

Tested on: Plasma
Test: Fraction unbound in human plasma at 5 uM pre-incubated for 1 hr by ultra-centrifugation and LC-MS/MS method
Assay type: ADME, cell-free
Exercise: state measured Fu for each of the molecules provided.
One number for each entry, in %.

CN(Cc1ccc(F)cc1)c1cc(C(=O)Nc2nncs2)ncn1 yielded Fu of 0.01

CN(Cc1ccc(C(F)(F)F)cc1)c1cc(C(=O)Nc2ccccc2)ncn1 yielded Fu of 0.11

CN(Cc1ccc(C(F)(F)F)nc1)c1cc(C(=O)Nc2ccccc2)ncn1 yielded Fu of 0.05

CN(Cc1ccc(C(F)(F)F)nc1)c1cc(C(=O)Nc2nncs2)ncn1 yielded Fu of 0.32

List the reported Fu of each molecule below.
1. CC(C)Oc1ccc(NC(=O)c2cc(N(C)Cc3ccc(F)cc3)ncn2)cc1
2. CN1CCN(c2ccc(NC(=O)c3cc(N(C)Cc4ccc(C(F)(F)F)cc4)ncn3)cc2)CC1

1. 0.04
2. 0.14

* * *

Exercise: state measured IC50 for each of the compounds provided.
Test system: Vero
Assay: Cytotoxicity against African green monkey Vero cells assessed as reduction in cell viability by MTT assay
Assay type: cell-based
Details: Chlorocebus sabaeus
Answers are plain numbers, in µM.

Solved cases below.
CN(Cc1ccc(F)cc1)c1cc(C(=O)Nc2ccc(N3CCOCC3)cc2)ncn1 yielded IC50 of 237

CN1CCN(c2ccc(NC(=O)c3cc(N(C)Cc4ccc(C(F)(F)F)nc4)ncn3)cc2)CC1 yielded IC50 of 45.2

CN1CCN(c2cccc(NC(=O)c3cc(N(C)Cc4ccc(F)cc4)ncn3)c2)CC1 yielded IC50 of 118

CN(Cc1ccc(C(F)(F)F)cc1)c1cc(C(=O)Nc2ccccc2)ncn1 yielded IC50 of 258

Others:
COCCOc1ccc(NC(=O)c2cc(N(C)Cc3ccc(F)cc3)ncn2)cc1 yielded IC50 of 244
